biological target: JAK2 (Homo sapiens (Human), UniProt O60674); assay: Z′-Lyte kinase inhibitory activity test; type: biochemical; details: ATP concentration Km
Sequence (O60674 whole entry): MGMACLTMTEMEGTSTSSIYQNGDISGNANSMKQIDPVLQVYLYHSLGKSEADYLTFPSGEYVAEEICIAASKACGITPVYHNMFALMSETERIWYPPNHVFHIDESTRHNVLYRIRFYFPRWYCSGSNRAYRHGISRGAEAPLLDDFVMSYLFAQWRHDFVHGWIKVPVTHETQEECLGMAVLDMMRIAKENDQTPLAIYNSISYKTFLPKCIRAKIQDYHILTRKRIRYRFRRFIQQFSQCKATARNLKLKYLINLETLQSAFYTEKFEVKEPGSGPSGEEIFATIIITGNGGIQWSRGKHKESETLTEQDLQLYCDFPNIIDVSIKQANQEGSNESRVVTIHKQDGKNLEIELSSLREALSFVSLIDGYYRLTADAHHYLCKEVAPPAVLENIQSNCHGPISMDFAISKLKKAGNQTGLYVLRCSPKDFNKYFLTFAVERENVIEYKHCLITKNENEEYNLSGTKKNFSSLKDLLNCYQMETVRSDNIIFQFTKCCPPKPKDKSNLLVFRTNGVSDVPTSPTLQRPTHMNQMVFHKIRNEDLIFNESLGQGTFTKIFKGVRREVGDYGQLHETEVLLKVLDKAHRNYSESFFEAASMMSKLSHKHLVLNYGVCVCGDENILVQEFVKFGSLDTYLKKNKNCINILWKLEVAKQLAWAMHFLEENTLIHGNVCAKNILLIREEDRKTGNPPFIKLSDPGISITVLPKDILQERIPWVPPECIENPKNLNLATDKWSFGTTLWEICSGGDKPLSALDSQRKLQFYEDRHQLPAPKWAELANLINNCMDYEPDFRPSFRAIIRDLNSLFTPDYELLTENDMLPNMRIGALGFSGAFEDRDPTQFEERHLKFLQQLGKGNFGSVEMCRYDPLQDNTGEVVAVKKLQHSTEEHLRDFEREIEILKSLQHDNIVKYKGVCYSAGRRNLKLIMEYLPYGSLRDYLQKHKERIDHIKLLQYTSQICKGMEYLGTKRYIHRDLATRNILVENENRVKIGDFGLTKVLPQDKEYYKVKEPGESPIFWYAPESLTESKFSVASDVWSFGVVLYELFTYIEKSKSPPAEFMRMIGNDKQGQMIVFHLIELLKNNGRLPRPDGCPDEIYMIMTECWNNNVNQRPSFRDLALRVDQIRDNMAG
pIC50: −log10 of the molar value.
reported_endpoint: pIC50

Here's what some known entries look like.
[
  {
    "smiles_representation": "C=C(C)C(=O)Nc1cc(Nc2ncc(Cl)c(O[C@@H]3CO[C@H]4[C@@H]3OC[C@H]4O)n2)ccc1N1CCC(N2CCN(C)CC2)CC1",
    "system_name": "JAK2 (Homo sapiens (Human), UniProt O60674)",
    "pIC50": 5.79
  },
  {
    "smiles_representation": "C=CC(=O)Nc1cc(Nc2ncc(Cl)c(O[C@@H]3CO[C@H]4[C@@H]3OC[C@H]4OC)n2)ccc1N(C)CCN(C)C",
    "system_name": "JAK2 (Homo sapiens (Human), UniProt O60674)",
    "pIC50": 5.69
  },
  {
    "smiles_representation": "C=CC(=O)Nc1cc(Nc2ncc(Cl)c(O[C@@H]3CO[C@H]4[C@@H]3OC[C@H]4OC(C)C)n2)ccc1N(C)CCN(C)C",
    "system_name": "JAK2 (Homo sapiens (Human), UniProt O60674)",
    "pIC50": 5.57
  }
]

I: C=CC(=O)Nc1cc(Nc2ncc(Cl)c(O[C@@H]3CO[C@H]4[C@@H]3OC[C@@H]4F)n2)ccc1N(C)CCN(C)C
II: C=CC(=O)Nc1cc(Nc2ncc(Cl)c(O[C@@H]3CO[C@H]4[C@@H]3OC[C@H]4O)n2)ccc1N1CCC(N(C)C)CC1
III: C=CC(=O)Nc1cc(Nc2ncc(Cl)c(O[C@@H]3CO[C@H]4[C@@H]3OC[C@H]4OC)n2)ccc1N1CCN(C)[C@@H](C)C1
Sort ascending by pIC50. I'd appreciate it if you listed the labels in the requested order.
I, III, II
(I: 5.61, III: 5.96, II: 6.36)
